Sourced from paper PMC11117716

# ASSAY_REMARKS: clinical
# MEASUREMENT_CONTEXT: human, in vivo, 80 mg/day
# Description: This paper describes data from multiple studies. The healthy volunteers’ data come from the single ascending and multiple ascending dose study, whereas Alzheimer’s and Parkinson’s patients are represented by the MCI NCT01072812 study, ADCS NCT02925650 study, and AD/PD NCT04524351 study. The evaluations are based on a sample size of n = 4 for each time point. […]
PROPERTY: Kp
Just the number.

• CN1CC[C@]2(C)c3cc(OC(=O)Nc4ccccc4)ccc3NC12 (some centres unmarked) [N8, N8-norposiphen] = 0.17

Incoming: Hello, please tell me recorded Kp for this one: CN1c2ccc(OC(=O)Nc3ccccc3)cc2[C@@]2(C)CCNC12 (some centres unmarked) [N1, N1-norposiphen]
Outgoing: 0.1
